Entries and their boiling point values follow.
Form entry: value (°C) — number only.

input: Tell me measured boiling point for COC(=O)c1ccccc1Br please.
output: 252

Further cases:
input: Tell me measured boiling point for Cc1cc(C(C)(C)C)c(O)c(C(C)(C)C)c1 please.
output: 265

input: Tell me measured boiling point for O=C(O)CCCCCl please.
output: 230

input: Tell me measured boiling point for O=C1c2ccccc2C(=O)c2ccccc21 please.
output: 377

input: Tell me measured boiling point for CCCCCCCCCCOC(C)=O please.
output: 244

input: Tell me measured boiling point for Cc1cc(O)cc(O)c1C please.
output: 284

input: Tell me measured boiling point for CC(C)CC(=O)OCC(COC(=O)CC(C)C)OC(=O)CC(C)C please.
output: 332

input: Tell me measured boiling point for N#CCCCC#N please.
output: 286

###

Entries and their log10 vapour pressure (mmHg) values follow.
Provide a numeric answer; units are not to be included.

Solved entries (count: 4):
input: Tell me measured log10 vapour pressure (mmHg) for CCCSP(=S)(OCC)Oc1ccc(SC)cc1 (stereo not drawn) please.
output: -5.92

input: Tell me measured log10 vapour pressure (mmHg) for c1cscn1 please.
output: 1.23

input: Tell me measured log10 vapour pressure (mmHg) for COP(=S)(OC)Oc1cc(Cl)c(I)cc1Cl please.
output: -6.08

input: Tell me measured log10 vapour pressure (mmHg) for C[Si](C)(C)O[Si](C)(C)O[Si](C)(C)C please.
output: 0.524

Further cases:
input: Tell me measured log10 vapour pressure (mmHg) for CCOP(=S)(OCC)Oc1cc(C)nc(N(CC)CC)n1 please.
output: -3.54

input: Tell me measured log10 vapour pressure (mmHg) for CCSCC please.
output: 1.78

input: Tell me measured log10 vapour pressure (mmHg) for CCC[Si](Cl)(Cl)Cl please.
output: 1.46

input: Tell me measured log10 vapour pressure (mmHg) for Nc1cccc(N)c1 please.
output: -2.68

input: Tell me measured log10 vapour pressure (mmHg) for CCOC(=O)NC please.
output: -0.0435

input: Tell me measured log10 vapour pressure (mmHg) for O=[N+]([O-])c1c(Cl)c(Cl)cc(Cl)c1Cl please.
output: -2.74

###

Parameter threshold = 90 °C. Response is fulfilled when melting point meets or exceeds it, else not fulfilled.

input: Answer whether melting point of O=C(OC1CCCCC1)c1ccccc1C(=O)OC1CCCCC1 is greater than or equal to 90 °C.
output: not fulfilled

input: Answer whether melting point of CC(C)C1=CC[C@H]2C(=C1)CC[C@@H]1[C@]2(C)CCC[C@@]1(C)C(=O)O is greater than or equal to 90 °C.
output: fulfilled

input: Answer whether melting point of Oc1ccc(Nc2ccc3ccccc3c2)cc1 is greater than or equal to 90 °C.
output: fulfilled

input: Answer whether melting point of Oc1cc(Cl)c(Cl)cc1Cl is greater than or equal to 90 °C.
output: not fulfilled

input: Answer whether melting point of CC(=O)O[Si](C)(OC(C)=O)OC(C)=O is greater than or equal to 90 °C.
output: not fulfilled

input: Answer whether melting point of CC(C)C(=O)Cl is greater than or equal to 90 °C.
output: not fulfilled

Consider the record given below.
input: Answer whether melting point of FC(F)Cl is greater than or equal to 90 °C.
output: not fulfilled

###

Entries and their melting point values follow.

Solved entries (count: 3):
input: Tell me measured melting point for O=C(O)C1CCNCC1 please.
output: 336 °C

input: Tell me measured melting point for c1ccc2c(c1)cc1ccc3c4ccccc4cc4ccc2c1c43 please.
output: 317 °C

input: Tell me measured melting point for O=C(Nc1ccc(Cl)c(Cl)c1)c1cc(Cl)cc(Cl)c1O please.
output: 161 °C

Further cases:
input: Tell me measured melting point for COc1cc2c(c(OC)c1OC)-c1ccc(O)c(=O)cc1[C@@H](NC(C)=O)CC2 please.
output: 178 °C

input: Tell me measured melting point for NS(=O)(=O)c1cc2c(cc1Cl)N=C(CSCc1ccccc1)NS2(=O)=O please.
output: 232 °C

input: Tell me measured melting point for ClC/C=C/CCl please.
output: -14.2 °C

input: Tell me measured melting point for Brc1cccc2c1Oc1cccc(Br)c1O2 please.
output: 207 °C

input: Tell me measured melting point for CCCCCCCC(=O)OCCCCCC please.
output: -30.6 °C

input: Tell me measured melting point for CCCCCCCCCCCCCCCCCCCCCC please.
output: 44.4 °C

input: Tell me measured melting point for NCCCNCCCN please.
output: -14 °C

input: Tell me measured melting point for C[C@H]1CCC(=O)N1 please.
output: 43 °C

input: Tell me measured melting point for c1cn[nH]n1 please.
output: 23 °C

input: Tell me measured melting point for CC[N+](CC)(CC)CCC(O)(c1ccccc1)C1CCCCC1.[I-] (configuration not stated) please.
output: 182 °C

###

For each record, check the reported boiling point: if it is below 200 °C write true (1), else write false (0).

input: Does N#CCc1ccccc1F have boiling point strictly under 200 °C?
output: false (0)

Further cases:
input: Does COC(C)(OC)OC have boiling point strictly under 200 °C?
output: true (1)

###

Parameter threshold = 100 °C. Response is t when melting point meets or exceeds it, else f.

Below are worked cases with known answers.
input: Answer whether melting point of C[C@]12COC(=O)C[C@@H]1CC[C@@H]1[C@@H]2CC[C@@]2(C)[C@H]1CC[C@]2(C)O is greater than or equal to 100 °C.
output: t

input: Answer whether melting point of Clc1nnnn1-c1ccccc1 is greater than or equal to 100 °C.
output: t

input: Answer whether melting point of Cc1ccc2sccc2c1 is greater than or equal to 100 °C.
output: f

input: Answer whether melting point of Cc1nc2cc(Cl)ccc2s1 is greater than or equal to 100 °C.
output: f

Consider the record given below.
input: Answer whether melting point of c1ccc(C2CO2)cc1 (stereo not given) is greater than or equal to 100 °C.
output: f

###

Entries and their melting point values follow.
Form entry: value (°C) — number only.

input: Tell me measured melting point for BrCCCCCCCBr please.
output: 41.7

input: Tell me measured melting point for BrCc1ccc(CBr)cc1 please.
output: 144

input: Tell me measured melting point for Nc1ccc(-c2ccc(N)c(N)c2)cc1N please.
output: 176

###

Property measured: melting point (°C)
Form entry: value (°C) — number only.

Solved entries (count: 5):
input: Tell me measured melting point for [Se]=C=[Se] please.
output: -45.5

input: Tell me measured melting point for C#C[C@]1(OC(C)=O)CC[C@H]2[C@@H]3CCC4=C/C(=N/O)CC[C@@H]4[C@H]3CC[C@@]21CC please.
output: 216

input: Tell me measured melting point for COc1c(OC)c(OC(C)=O)c2ccccc2c1OC(C)=O please.
output: 138

input: Tell me measured melting point for CCCCOP(=O)(O)OCCCC please.
output: -13

input: Tell me measured melting point for C=CCCl please.
output: -134

Further cases:
input: Tell me measured melting point for CO[C@H]1[C@H](O)[C@H](O[C@H]2CC[C@@]3(C=O)[C@H](CC[C@@H]4[C@@H]3CC[C@]3(C)[C@@H](C5=CC(=O)OC5)CC[C@]43O)C2)O[C@@H](C)[C@@H]1O please.
output: 162

input: Tell me measured melting point for CC1(C)CC=CCC1 please.
output: -74.4

###

Property measured: melting point (°C)
Form entry: value (°C) — number only.

input: Tell me measured melting point for C1CC[C@H]2CCC[C@@H]2C1 (racemic) please.
output: -53

input: Tell me measured melting point for Cl[C@@H]1CCCC[C@H]1Cl please.
output: -1.5

// moving on: another record for melting point
input: Tell me measured melting point for CC1=CCCC1C (stereo not drawn) please.
output: -118

###

Entries and their melting point values follow.
Form entry: value (°C) — number only.

input: Tell me measured melting point for Brc1cnc2ccccc2c1 please.
output: 13.3

Further cases:
input: Tell me measured melting point for CC(S)C(=O)NCC(=O)O (stereo not drawn) please.
output: 96

input: Tell me measured melting point for CCC please.
output: -188

input: Tell me measured melting point for ClC1c2ccccc2CCc2ccccc21 please.
output: 106

input: Tell me measured melting point for C1CN(SSN2CCOCC2)CCO1 please.
output: 124

input: Tell me measured melting point for OCc1c[nH]c2ccccc12 please.
output: 97.5

input: Tell me measured melting point for CC(=O)Oc1ccc2c(c1)CC[C@@H]1[C@@H]2CC[C@]2(C)C(=O)[C@H](OC(C)=O)C[C@@H]12 please.
output: 180

input: Tell me measured melting point for Sc1ccccc1 please.
output: -14.9

input: Tell me measured melting point for CC[C@H]1OC(=O)[C@H](C)[C@@H](O[C@H]2C[C@@](C)(OC)[C@@H](O)[C@H](C)O2)[C@H](C)[C@@H](O[C@@H]2O[C@H](C)C[C@H](N(C)C)[C@H]2O)[C@](C)(O)C[C@@H](C)CN(C)[C@H](C)[C@@H](O)[C@]1(C)O please.
output: 114

input: Tell me measured melting point for Cc1cccc2c1ccc1cc(C(C)C)ccc12 please.
output: 101

input: Tell me measured melting point for O=c1cccccc1O please.
output: 50.8

input: Tell me measured melting point for O=C(O)C=Cc1cccc(Br)c1 please.
output: 178

input: Tell me measured melting point for CC(=O)c1ccc(O)cc1 please.
output: 110

input: Tell me measured melting point for CC(C)(C)c1ccc(O)c(O)c1 please.
output: 54.3

input: Tell me measured melting point for OC(C1=CC(=C(c2ccccn2)c2ccccn2)C=C1)(c1ccccn1)c1ccccn1 please.
output: 147

input: Tell me measured melting point for CC1CC(=O)C(C)(C)C1 (stereo not drawn) please.
output: -40.6
